Kindly supply the reported GI50 values for the records listed here.
# System: DU-145
# method: NCI tumour cell line growth inhibition, 48 h
Activity calls are given as the source filed them. No stated cut-off is given here; in the data, active = GI50 up to about 1.1 µM and inactive = higher.

What GI50 value was documented for this molecule, `C[C@@]12C[C@@H](c3ccccc3O1)N1CCSC1=N2` ? > 100 µM (inactive)

Query (molecule): `Cc1ccnc2[nH]c3ccccc3c(=O)c12` ; field requested: GI50 30.2 µM (inactive)

Fill in: GI50 of `CCOC(=O)c1c(CN2CCNCC2)nc2ccc(Cl)cc2c1-c1ccccc1` is ___ 16.2 µM (inactive)

Field request: GI50 | item: `NC(=O)c1cc2ccccc2o/c1=N/O` > 100 µM (inactive)

Bench note: what GI50 did `Cc1ccc2nc(-c3ccc(NC(=O)c4ccc(N)cc4)c(S(=O)(=O)O)c3)sc2c1` show? > 100 µM (inactive)

Param item = O=C1C(CN2CCOCC2)CCCC1CN1CCOCC1 (stereo not given) ; retrieve measured GI50. 17.3 µM (inactive)

Which GI50 value is on record for `Clc1nc(Cl)nc(NC23CC4CC(CC(C4)C2)C3)n1` ? 16.7 µM (inactive)

Can you share its GI50? I mean this molecule: CCN(CC)CC[S+]([O-])c1c2cc(OC)ccc2nc2ccc(OC)cc12 (stereo not given) 1.91 µM (inactive)

Need GI50 of COc1cc(/C=C/C2=NN(c3cccc(S(=O)(=O)O)c3)C3(C2)SCC(=O)N3c2nc3ccccc3s2)cc(OC)c1OC (stereo not given) , thanks. 29.4 µM (inactive)

Could you share which GI50 value was measured for CC(C(O)Cc1ccccc1)N(C)/N=N/c1ccc([N+](=O)[O-])cc1 (stereo not given) ? 27 µM (inactive)

Name the recorded GI50 for O=S(=O)(/C=C/C=C/[S+]([O-])c1ccccc1)c1ccccc1 (stereo not given) . > 4.42 µM (inactive)

Please look up its GI50: CS(=O)(=O)OC1CN2CCC1CC2 (stereo not given) > 100 µM (inactive)

Report GI50 for `Cc1ccc2c(c1)NC(=O)CC(c1ccccc1)=N2` please. > 100 µM (inactive)

Item `[N-]=[N+]=C(C(=O)OCC#CCOC(=O)C(=[N+]=[N-])S(=O)(=O)c1ccccc1)S(=O)(=O)c1ccccc1` has what recorded GI50? > 10 µM (inactive)

Given the molecule N/N=C(\c1nc2ccc([N+](=O)[O-])cc2nc1O)C(O)c1ccc(Cl)c(Cl)c1 (stereo not given) , what is its reported GI50? > 100 µM (inactive)

Any idea what GI50 was measured for `COc1cccc(/N=N/C(=N\NC(=O)c2ccc(C)cc2)c2ccc(N(CCC#N)CCC#N)cc2C)c1` ? > 100 µM (inactive)

Fill in the blank: the reported GI50 of `COc1ccc(-c2csc(Cc3nc4c(Br)cc(Br)cc4c(=O)n3-c3ccc(OC)cc3)n2)cc1` is ____. > 100 µM (inactive)

Need GI50 of `N#CC1=C2Sc3ccccc3N2[C@H](c2ccccc2)[C@H]2COC(=O)[C@@H]12` , thanks. > 100 µM (inactive)

Which GI50 value is on record for `CCOc1ncn(-c2ccc(NC(=S)NC34CC5CC(CC(C5)C3)C4)cc2)n1` ? > 100 µM (inactive)

I'd like to know its GI50. The molecule in question is CCC(C)(C)C1CCC2c3c([nH]c4ccccc34)C3C(=O)N(c4ccc(OC)cc4)C(=O)C3C2C1 (stereo not given) 5.4 µM (inactive)

Name the reported GI50 value associated with the molecule `CN(C)c1ccc(/C=c2/c3ccccc3n3c2cc(/C=C/c2ccccc2)[n+]3C)cc1` 0.1 µM (active)

// GI50 lookup, key: `CCOC(=O)Cn1c(=O)c(C)cn(COCCO)c1=O` > 100 µM (inactive)

Item Cc1ccc(C2NC(=N)NC3=C2CCOc2c3ccc3ccccc23)cc1 (stereo not given) has what recorded GI50? 7.35 µM (inactive)

May I ask what GI50 has been recorded for `CC(C)(C)c1cc(OCc2nnc3sc(S)nn23)c(Cl)cc1OCc1nnc2sc(S)nn12` ? 30.3 µM (inactive)

Find the recorded GI50 belonging to CC1(C)C(=O)C2(OS(=O)(=O)C(F)(F)F)CCC1C2 (stereo not given) and report it. > 100 µM (inactive)

Given COc1ccc(CC2OC3(CCCCC3)CC3CCCCN32)cc1 (stereo not given) , state its recorded GI50. > 100 µM (inactive)

Name the recorded GI50 for CC(=O)OCC1OC(n2c(Br)nc3c2c(=O)n(C)c(=O)n3C)C(OC(C)=O)C1OC(C)=O (stereo not given) . 38.2 µM (inactive)

If you can, please state the reported GI50 value of CC/C=C/C(/C=C/C[C@]1(CC)C[C@H](CC)[C@H](CC(=O)O)OO1)CC (stereo not given in full) . 1.85 µM (inactive)

Param item = `CCNC(=S)N/N=C/c1cc(OC)ccc1O` ; retrieve measured GI50. > 100 µM (inactive)

I have this molecule here, COc1cc(C2SC(=N)Nc3c2c(C)nn3C(=O)c2ccc(Cl)cc2)ccc1O (stereo not given) , and I need its recorded GI50. > 10 µM (inactive)

So what's the measured GI50 for this one? OCC(O)C1OC2CC1Nc1ccccc1N2 (stereo not given) > 100 µM (inactive)

What does the data say about its GI50? Entry: `Cc1cc([N+](=O)[O-])c(C)c(Br)c1C` > 100 µM (inactive)

Name the reported GI50 value associated with the molecule CC1=C(OC2OC(CO)C(O)C(O)C2O)C(=O)C[C@H]2C1=CC[C@@H]1[C@@]2(C)C(=O)C[C@]2(C)[C@@H]([C@@](C)(O)C(=O)CCC(C)(C)O)[C@H](O)C[C@@]12C (stereo not given in full) > 100 µM (inactive)

Which GI50 value is on record for CC1OC(n2cc(F)c(=O)[nH]c2=O)C(O[Si](C)(C)C(C)(C)C)C1O[Si](C)(C)C(C)(C)C (stereo not given) ? 13.6 µM (inactive)

Would you kindly share the measured GI50 for `Cc1ccc(CNc2ccc(Br)cc2)cc1` ? 90.4 µM (inactive)

So what does the record say about GI50 for `Cc1ccc(C(=O)CC(O)(C(F)(F)F)C(F)(F)F)cc1[N+](=O)[O-]` ? 6.22 µM (inactive)

I am curious: what GI50 value has been reported for COc1cc(-c2coc3c(OC)c(OC4OC(COC5OC(C)C(O)C(O)C5O)C(O)C(O)C4O)c(OC)c(O)c3c2=O)cc(C)c1O (stereo not given) ? 19.6 µM (inactive)

// lookup GI50 for `NCCCc1ccc2oc3ccccc3c2c1` 16.9 µM (inactive)

// GI50 lookup, key: C[C@]12CC[C@@H]3c4ccc(O)cc4CC[C@H]3[C@@H]1CC[C@@H]2OC(=O)CCC1CCCC1 [ESTRADIOL CYPIONATE] 13.7 µM (inactive)

Which GI50 value belongs to `[N-]=[N+]=Nc1ccc2c(c1)Sc1ccccc1N2CCCCCl` ? > 100 µM (inactive)

----------
# Test system: MDA-N
# method: NCI tumour cell line growth inhibition, 48 h
Activity calls are given as the source filed them. Rule as the data show it: active = GI50 up to about 1.1 µM and inactive = higher.
Hi there, use one of these labels in your reply, thanks! 1 (yes) (active), 0 (no) (inactive)

Tell me the recorded outcome of this test for `NCCCc1ccc2oc3ccccc3c2c1` . 0 (no)

What classification did COc1cc(-c2coc3c(OC)c(OC4OC(COC5OC(C)C(O)C(O)C5O)C(O)C(O)C4O)c(OC)c(O)c3c2=O)cc(C)c1O (stereo unspecified) end up with in this test? 1 (yes)

Give the logged outcome of this assay for the following compound: `CC(C)c1cc(Cl)nc(Cl)n1` 0 (no)

Tell me the recorded outcome of this test for `CN(CCNC(=O)c1n[nH]c2c1Cc1ccccc1-2)CCNC(=O)c1n[nH]c2c1Cc1ccccc1-2` . 0 (no)

Call for entry `COc1ccc(/C=C2\N=C(SC)NC2=O)cc1` : 0 (no)

Please share the test call associated with CCOC(=O)C(NC(=O)CC)(Nc1ccc(S(=O)(=O)Nc2nc(C)cc(C)n2)cc1)C(F)(F)F (stereo unspecified) . 0 (no)

----------
Kindly supply the reported GI50 values for the records listed here.
# Test system: KM12
# method: NCI tumour cell line growth inhibition, 48 h
Structures can show the parent of a compound that is named as a salt. Calls of active or inactive are those of the source. Rule as the data show it: active = GI50 up to about 1.1 µM and inactive = higher.

What is its GI50 for KM12? Entry: `CC(=O)NNc1nc(C)c(C(=O)NNC(=O)C(=O)Nc2c(C)cccc2C)s1` 35.1 µM (inactive)

What is its GI50 for KM12? Entry: Nc1ncc2ncn(C3CCC(CO)O3)c2n1 (stereo not given) > 100 µM (inactive)

Hello, I am looking for reported GI50 with KM12 for CC1=NN=C(N)N/C1=C\C(Sc1ccc(Cl)cc1)c1ccc(Cl)cc1Cl (stereo not given) . Could you help? 6.41 µM (inactive)

Form: Entry = N[C@@H](Cc1ccc(N(CCCl)CCCl)cc1)C(=O)O [MELPHALAN HYDROCHLORIDE] | System = KM12 | GI50 = ____ 71.1 µM (inactive)

Give GI50 (KM12) of the following compound: `Cc1cccc2c(=O)c3cccc(CC(=O)O)c3oc12` > 100 µM (inactive)

Any idea what GI50 came out for CCOC(=O)C12CN(C34CC5CC(CC(C5)C3)C4)CC(C(=O)OCC)(C1=O)C(c1ccccc1)OC2c1ccccc1 (stereo not given) on KM12? > 100 µM (inactive)

Item CC(=O)OC1CC[C@@]2(C)C(CC[C@]3(C)C2CC=C2[C@@H]4C(C)[C@H](C)CCC4(C)CCC23C)[C@@]1(C)C(=O)O (stereo not given in full) with KM12 - GI50? 21.2 µM (inactive)

Record lookup: for KM12, what GI50 belongs to `O=C(c1ccccc1)C1S(=O)(=O)OCCOS1(=O)=O` ? > 100 µM (inactive)

Field: GI50 (KM12). Entry: O=C1CC(O)C=C1Nc1ccc(Cl)cc1 (stereo not given) 13.4 µM (inactive)

Recorded GI50 for `COc1ccc(-c2csc(Cc3nc4c(Br)cc(Br)cc4c(=O)n3-c3ccc(OC)cc3)n2)cc1` with KM12, please? 86.5 µM (inactive)

Values from ChEMBL document CHEMBL1201862
